Exercise: state measured MIC90 for each of the compounds provided.
- Tested on: Bifidobacterium sp.
- assayDetails: Antimicrobial activity against Bifidobacterium sp. after 48 hrs by agar dilution method
- Type: functional
Answers are plain numbers, in µg/mL.

Take a look at these entries with their results.
# compound, observationType, unitsOfMeasure, measuredResult
rows = [
    ("C[C@@H](O)[C@H]1C(=O)N2C(C(=O)O)=C(SCCNC=N)C[C@H]12 [IMIPENEM ANHYDROUS]", "MIC90", "µg/mL", 0.5),
    ("CO[C@@]1(NC(=O)Cc2cccs2)C(=O)N2C(C(=O)O)=C(COC(N)=O)CS[C@@H]21", "MIC90", "µg/mL", 16),
    ("C[C@@H](O)[C@H]1C(=O)N2C(C(=O)O)=C(S[C@@H]3CN[C@H](C(=O)N(C)C)C3)[C@H](C)[C@H]12", "MIC90", "µg/mL", 2),
]

Dear colleague, please send me the reported MIC90 for "CCN1CCN(C(=O)N[C@@H](C(=O)N[C@@H]2C(=O)N3[C@@H]2SC(C)(C)[C@@H]3C(=O)O)c2ccccc2)C(=O)C1=O" when you can.
8
